Test system: corn (Zea mays)
PROCEDURE_DETAILS: Test A pre-/postemergence: corn
Type: in vivo
CONDITION_DETAILS: Postemergence, 500 g ai/ha; visual rating on 0 to 100 scale (0 no effect, 100 complete control), approximately ten days
METRIC_NAME: Corn plant response rating
Answers are plain numbers.

{"COMPOUND": "Cc1nn(-c2ccc(C(F)(F)F)cc2)nc1C(=O)c1cccc(C(F)(F)F)c1 [Compound 45]", "Corn plant response rating": 20}

State recorded Corn plant response rating for all listed compounds.
1. CCc1nn(-c2ccc(C(F)(F)F)cc2)nc1Cn1cc(C(F)(F)F)nc1Cl [Compound 122]
2. Cc1nn(-c2ccc(Br)cc2)nc1C(=O)c1cccc(C(F)(F)F)c1 [Compound 92]
3. Cc1nn(-c2ccc(F)cc2)nc1Oc1ccc(F)c(C(F)(F)F)c1 [Compound 56]
4. Cc1nn(-c2ccc(F)c(F)c2)nc1Oc1ccnc(C(F)(F)F)c1 [Compound 145]
5. Cc1nn(-c2ccc(F)cc2)nc1Oc1cc(C(F)(F)F)ccn1 [Compound 128]
6. Cc1nn(-c2ccc(I)cc2)nc1C(=O)c1cccc(C(F)(F)F)c1 [Compound 61]
7. CCCc1nn(-c2ccc(F)cc2)nc1Cc1cccc(C(F)(F)F)c1 [Compound 149]

Completion:
1. 30
2. 10
3. 20
4. 90
5. 10
6. 10
7. 40

Please give Corn plant response rating, item by item, for the list that follows.
1. Cc1nn(-c2ccnc(F)c2)nc1C(=O)c1cccc(C(F)(F)F)c1 [Compound 3]
2. O=C(c1ccnc(C(F)(F)F)c1)c1nn(-c2ccc(F)cc2)nc1F [Compound 158]
3. Cc1nn(-c2ccc(C(F)(F)F)cc2)nc1Cn1ccc(C(F)(F)C(F)(F)F)n1 [Compound 12]
4. Cc1nn(-c2ccc(C(F)(F)F)cc2)nc1Oc1ccccc1Cl [Compound 82]

Completion:
1. 30
2. 20
3. 30
4. 0

Look up Corn plant response rating for the entries below, preserving their order.
1. Cc1nn(-c2ccc(F)cc2)nc1Cn1ccc(C(F)(F)F)n1 [Compound 2]
2. Cc1nn(-c2ccc([N+](=O)[O-])cc2)nc1C(=O)c1cccc(C(F)(F)F)c1 [Compound 41]
3. Cc1nn(-c2ccc(F)cc2)nc1Cn1cnc(C(F)(F)F)c1Cl [Compound 36]
4. Cc1nn(-c2ccnc(Cl)c2)nc1C(=O)c1cccc(C(F)(F)F)c1 [Compound 4]

Completion:
1: 10; 2: 20; 3: 0; 4: 30

====

Test system: barnyardgrass (Echinochloa crus-galli)
PROCEDURE_DETAILS: Test A pre-/postemergence: barnyardgrass
Format: in vivo
CONDITION_DETAILS: Postemergence, 125 g ai/ha; 0 to 100 scale, 0 is no effect, 100 is complete control
Lab note: anything with Plant response rating, Barnyardgrass at or over 30 counts as Yes; the rest go in No.

Here are 5 compounds together with their reported answers.
{"SMILES_INPUT": "COc1nn(-c2ccc(F)cc2F)nc1Cc1ccnc(C(F)(F)F)c1", "ASSAYED_SYSTEM": "barnyardgrass (Echinochloa crus-galli)", "ASSIGNED_CLASS": "Yes"}
{"SMILES_INPUT": "CC(C)Cc1nn(-c2ccc(C(F)(F)F)cc2)nc1Oc1ccnc(C(F)F)c1", "ASSAYED_SYSTEM": "barnyardgrass (Echinochloa crus-galli)", "ASSIGNED_CLASS": "No"}
{"SMILES_INPUT": "CC(C)(C)c1nn(-c2ccc(F)cc2)nc1C(=O)c1ccnc(C(F)(F)F)c1", "ASSAYED_SYSTEM": "barnyardgrass (Echinochloa crus-galli)", "ASSIGNED_CLASS": "No"}
{"SMILES_INPUT": "Cc1nn(-c2ccc(C(F)(F)F)c(F)c2)nc1Cc1ccnc(C(F)(F)F)c1", "ASSAYED_SYSTEM": "barnyardgrass (Echinochloa crus-galli)", "ASSIGNED_CLASS": "Yes"}
{"SMILES_INPUT": "CCCc1nn(-c2ccc(F)cc2)nc1Cc1ccnc(C(F)(F)F)c1", "ASSAYED_SYSTEM": "barnyardgrass (Echinochloa crus-galli)", "ASSIGNED_CLASS": "Yes"}

Prompt: Does Plant response rating, Barnyardgrass meet or surpass 30 for "CC(C)Cc1nn(-c2ccc(C(F)(F)F)cc2)nc1Oc1ccnc(C(F)(F)F)c1" ?
Completion: No

Prompt: Check this compound for Plant response rating, Barnyardgrass at or above 30: "CC(C)c1nn(-c2ccc(F)cc2)nc1Cc1ccnc(C(F)(F)F)c1"
Completion: No

====

Tested on: morningglory (Ipomoea spp.)
PROCEDURE_DETAILS: Test A pre-/postemergence: morningglory
Assay type: in vivo
CONDITION_DETAILS: Postemergence, 125 g ai/ha; 0 to 100 scale, 0 is no effect, 100 is complete control
METRIC_NAME: Morningglory plant response rating
Numbers only.

Please review the following examples before continuing.
{"SMILES_INPUT": "Cc1cc(Oc2nn(-c3ccc(F)cc3)nc2C)ccc1F", "ASSAYED_SYSTEM": "morningglory (Ipomoea spp.)", "METRIC_NAME": "Morningglory plant response rating", "ENDPOINT_RESULT": 0}
{"SMILES_INPUT": "Cc1nn(-c2cccc(Cl)c2)nc1C(=O)c1cccc(C(F)(F)F)c1", "ASSAYED_SYSTEM": "morningglory (Ipomoea spp.)", "METRIC_NAME": "Morningglory plant response rating", "ENDPOINT_RESULT": 10}
{"SMILES_INPUT": "Cc1nn(-c2cccc(I)c2)nc1C(=O)c1cccc(C(F)(F)F)c1", "ASSAYED_SYSTEM": "morningglory (Ipomoea spp.)", "METRIC_NAME": "Morningglory plant response rating", "ENDPOINT_RESULT": 0}
{"SMILES_INPUT": "Cc1nn(-c2ccccc2Cl)nc1C(=O)c1cccc(C(F)(F)F)c1", "ASSAYED_SYSTEM": "morningglory (Ipomoea spp.)", "METRIC_NAME": "Morningglory plant response rating", "ENDPOINT_RESULT": 0}

Lab note: each molecule below needs its Morningglory plant response rating filled in.
1. Cc1nn(-c2ccc(F)cc2)nc1Cc1ccnc(OCC(F)(F)F)c1
2. CSc1ccccc1-n1nc(C)c(C(=O)c2cccc(C(F)(F)F)c2)n1
3. Cc1nn(-c2ccc(C(F)(F)F)cc2)nc1Cn1ccc(C(F)(F)C(F)(F)F)n1
4. Cc1nn(-c2ccc(Br)cc2)nc1C(=O)c1cccc(C(F)(F)F)c1
5. Cc1nn(-c2ccc(C(F)(F)F)cc2)nc1Oc1ccc(C(F)(F)F)cc1

Completion:
0
0
70
10
0

====

For each entry below, report its Plant response rating, Rice value.
Tested on: rice (Oryza sativa)
PROCEDURE_DETAILS: Test C flooded paddy test: rice
Type: in vivo
CONDITION_DETAILS: Flood (flooded paddy test), 250 g ai/ha; visual rating after 13 to 15 days, scale 0 to 100 (0 no effect, 100 complete control)

The examples below pair each entry with its known result.
{"SMILES_INPUT": "Cc1nn(-c2cccc([N+](=O)[O-])c2)nc1C(=O)c1cccc(C(F)(F)F)c1", "ASSAYED_SYSTEM": "rice (Oryza sativa)", "METRIC_NAME": "Plant response rating, Rice", "ENDPOINT_RESULT": 0}
{"SMILES_INPUT": "Cc1nn(-c2ccc(F)cc2)nc1Cn1ccc(C(F)(F)F)n1", "ASSAYED_SYSTEM": "rice (Oryza sativa)", "METRIC_NAME": "Plant response rating, Rice", "ENDPOINT_RESULT": 0}
{"SMILES_INPUT": "Cc1nn(-c2ccc(C(F)(F)F)cc2)nc1C(=O)c1cccc(C(F)(F)F)c1", "ASSAYED_SYSTEM": "rice (Oryza sativa)", "METRIC_NAME": "Plant response rating, Rice", "ENDPOINT_RESULT": 0}

Field: Plant response rating, Rice. Fill in for each record below.
1. Cc1nn(-c2ccc(C(F)(F)F)cc2)nc1Oc1ccc(C(F)(F)F)cc1
2. Cc1nn(-c2cccc(C(F)(F)F)n2)nc1C(=O)c1cccc(C(F)(F)F)c1
3. Cc1nn(-c2ccc(C(F)(F)F)cn2)nc1Cn1ccc(C(F)(F)F)n1

Completion:
25
0
15

Please go through the list and note Plant response rating, Rice for each molecule.
1. COc1nn(-c2ccc(C(F)(F)F)cc2)nc1Cc1cccc(C(F)(F)F)c1
2. Cc1nn(-c2ccc(C(F)(F)F)cc2)nc1Cn1ccc(C(F)(F)C(F)(F)F)n1

Completion:
0
25

====

Test system: foxtail, giant (giant foxtail, Setaria faberii)
PROCEDURE_DETAILS: Test A pre-/postemergence: foxtail, giant
Type: in vivo
CONDITION_DETAILS: Postemergence, 125 g ai/ha; 0 to 100 scale, 0 is no effect, 100 is complete control
METRIC_NAME: Foxtail, Giant plant response rating
Numbers only.

{"SMILES_INPUT": "CCc1nn(-c2ccc(C(F)(F)F)cc2)nc1Cn1cc(C(F)(F)F)nc1Cl", "ASSAYED_SYSTEM": "foxtail, giant (giant foxtail, Setaria faberii)", "Foxtail, Giant plant response rating": 60}
{"SMILES_INPUT": "Cc1nn(-c2ccc(F)cc2)nc1Cn1ccc(C(F)(F)F)n1", "ASSAYED_SYSTEM": "foxtail, giant (giant foxtail, Setaria faberii)", "Foxtail, Giant plant response rating": 10}
{"SMILES_INPUT": "Cc1nn(-c2ccc(C(F)(F)F)cc2)nc1Oc1cnn(CC(F)(F)F)c1", "ASSAYED_SYSTEM": "foxtail, giant (giant foxtail, Setaria faberii)", "Foxtail, Giant plant response rating": 0}
{"SMILES_INPUT": "CCc1nn(-c2cccc(C(F)(F)F)c2)nc1Cc1cccc(C(F)(F)F)c1", "ASSAYED_SYSTEM": "foxtail, giant (giant foxtail, Setaria faberii)", "Foxtail, Giant plant response rating": 80}

Hi there! I need Foxtail, Giant plant response rating for each item below, if you can.
1. Cc1nn(-c2ccccc2[N+](=O)[O-])nc1C(=O)c1cccc(C(F)(F)F)c1
2. Cc1nn(-c2ccc(Cl)cc2)nc1Oc1ccnc(C(F)(F)F)c1
3. Cc1nn(-c2ccc(C(F)(F)F)cc2)nc1C(=O)c1cccc(C(F)(F)F)c1

Completion:
[0, 50, 20]

Hey, quick one: what's Foxtail, Giant plant response rating for each of these?
1. Cc1nn(-c2ccc(F)cc2)nc1Oc1ccc(F)c(C(F)(F)F)c1
2. Cc1cc(Oc2nn(-c3ccc(F)cc3)nc2C)ccc1F

Completion:
1. 20
2. 0
